Tested on: Leishmania donovani
Test: Antiamastigote activity against amastigote stage of Leishmania donovani MHOM/IN/80/Dd8 expressing luciferase firefly reporter gene infected in mouse J774A1 cells after 72 hrs by luminescence assay
Assay type: functional, organism-based
Conditions: MHOM/IN/80/Dd8, J774.A1, 72 h
pIC50: −log10 of the molar value.
readout name: pIC50

Solved cases below.
1) Cc1ccc2nc(Cl)c(/C=C/C(=O)c3ccc4c(c3O)C=CC(C)(C)O4)cc2c1 :: 5.28
2) CC1(C)C=Cc2c(ccc(C(=O)/C=C/c3ccc(Cl)cc3Cl)c2O)O1 :: 5.01
3) CCOc1ccc(/C=C/C(=O)c2ccc3c(c2O)C=CC(C)(C)O3)cc1 :: 5.29
4) CC1(C)C=Cc2c(ccc(C(=O)/C=C/c3ccc([N+](=O)[O-])cc3)c2O)O1 :: 5.28
5) CC(C)=CCC/C(C)=C/COc1ccc(C(=O)/C=C/c2ccc(O)cc2)cc1 :: 5.03

[I] CC(=O)Nc1ccc(/C=C/C(=O)c2ccc3c(c2O)C=CC(C)(C)O3)cc1
[II] COc1ccc(/C=C/C(=O)c2ccc(OC/C=C(\C)CCC=C(C)C)cc2)cc1
[III] CC1(C)C=Cc2c(ccc(C(=O)/C=C/c3cc4ccccc4nc3Cl)c2O)O1
[IV] CC1(C)C=Cc2c(ccc(C(=O)/C=C/c3cccnc3)c2O)O1
Put the entries in order of pIC50, starting with the largest number. Reply: labels, ordered per the request.
II, I, III, IV
(II: 5.51, I: 5.21, III: 4.92, IV: 4.65)

Value source: ChEMBL document CHEMBL3259782
